All figures here come from the DeepSol protein solubility set.

assay: soluble on expression in E. coli; label from the status in PepcDB or PDB records
reported endpoint: soluble on expression in E. coli

Use the examples below as a reference point.
MKQLWFAMSLVAASLFFSANASADPASGALLQQMNIASQSLNYELSFVSITKQGVESLRYRHARLDGRPLAQLLQLDGPRREVVQRGNEISYFEPGLEPFTLNGDYIVDSLPSLIYTDFKRLAPYYDFISVGRTRIADRLCEVIRVVARDGTRYSYIVWMDMDTKLPMRVDLLDRDGETLEQFRVIAFTVSQDIGSNMQALAKANLPPLLSVPGGEKTKFNWSPSWVPQGFSEVSSSRRPLPTMDNLPIESRLYSDGLFSFSVNVNRATQNSSDQMLRTGRRTVYSSVRDNAEITIVGELPPQTAKRIADSIKFRAVQ : not soluble
MPRINSPHITGNYPSTPFIFYIPTSGQRPMQWSAEKLPEGLELDSKTGIISGVMTSKGDYTVTLKAENALGVSVKQLVIRIGDELLLEHHHHHH : not soluble
MRISLPVAEAAAAGGRAGKHGKAITFLTPDDTAVYFDLKQVKIVDGHLPTHVFSLNCLRRYARMDSRNMMLHGANLDNSHLDVKVNFLFENFKHFSVFLKLTKSSK : soluble
MAHHHHHHMSLMDCKYHKHHLYADKFWWSPSPETNHMRGDAEFKWKGNELIAYGDYNAHMQHPANFVTSSSSGSSGSGAATSKSAAAAAGSKKGASARPWFRRTVVVRKSQASDTKPLSTASKIAAAGTSK : not soluble
MGSDKIHHHHHHMRRVSIYELDPGMIVARAIFNSEERVLLHAGVELNEKYIHGLQKAGVMSVYIRDELFDESDAVSDIISEKTRLKAIRTLKESFNLLEKKHQLNLHAVKNTVDEIIDEIIANPNTLVSLTDIRSFDDYTYAHSVNVGVLSIMSGVSLNYERSQLKELGVGALLHDIGKIKIDKNILNKPDDLSPEEFTEIKQHSKAGFDILRQHSGLSLLSAHIAFQHHERWDGQGYPRQLSGEEIHEYARIVAVADVYDALVADRPYRPAYSVTQAISILKRMTGLFLDPQCVKAFLNNIAVYPLGCLLELNTGELGAVIDINRKTPAQPVVRVLYDRNWRLLTPYELDLSKNSALVVKNVLSERQIKELKKNL : not soluble

Could you tell me soluble on expression in E. coli for each of these sequences? They are listed below.
1. MAMSRQCTHYGRWPQHGFTSLKKLTPQSVTSRIQPGTDVIVCAEMDEHWGYFCAKKRQRWLVDTYDKIRRTDVDHVFGERTLATLERLLSLLSAFEVAVWMTDGWPLYESRLKGKLHVISKRYTQRIERHNLNLRQHLARLVRKSLSFSKSVELHSGIILEHHHHHH
2. MSQLVYFSSSSENTQRFIERLGLPAVRIPLNERERIQVDEPYILIVPSYGGGGTAGAVPRQVIRFLNDEHNRALLRGVIASGNRNFGEAYGRAGDVIARKCGVPWLYRFELMGTQSDIENVRKGVTEFWQRQPQNA
3. MRGKNTGKQRRSIKKQQTVAELKHLFDAPGRGSVMPRQVLWGDLCLTAFPHELNSESTAPMHRYILLSIIRIPLPLTLESQRSLTLVKRCFRRSSVLSSTLYSRLGSTTF
4. MQNEGQYAEADALLLSLVAAKDAHLMGERTVLGLPRRLHAARLRLAKAEGDLVARIGYQYTLVPPPDMLAKYTQFSAEDRRMINRKSREDVPRLIHQIWIGEKAPPISVKAWAAHAARHGYDYRLWREADLEREGVFSNAIFNRMLSEGDYPGAVDVARYILLERFGGIYLDCDWYPARDDRSFDAFVPLAGLTAFDEKTPRDTGQGSMLLANSFIAAPAGHPVFRKMLDSFPGIIEEMPRAPAWWSTGPLIFTVIARAGSISLAPASFVAVTLADRAPLEEVEAIRRELATQDSGMLIAWKSWLEHHHHHH
5. MRRAELAGLKTMAWVPAESAVEELMPRLLPVEPCDLTEGFDPSVPPRTPQEYLRRVQIEAAQCPDVVVAQIDPKKLKRKQSVNISLSGCQPAPEGYSPTLQWQQQQVAQFSTVRQNVNKHRSHWKSQQLDSNVTMPKSEDEEGWKKFCLGEKLCADGAVGPATNESPGIDYVQIGFPPLLSIVSRMNQATVTSVLEYLSNWFGERDFTPELGRWLYALLACLEKPLLPEAHSLIRQLARRCSEVRLLVDSKDDERVPALNLLICLVSRYFDQRDLADEPSLEHHHHHH

not soluble
soluble
not soluble
soluble
soluble

Could you tell me soluble on expression in E. coli for each of these sequences? They are listed below.
1. MDYRIRTSRDEDAALLPAIERSAGESFRLLPELAWIADAGVAGVDFHRRLIERGSHWLAEDADGQPVGFLAAERCADELHIAELSIAQAHQQQGLGRRLLERAVTYAHASHCRALTLTTFCDVPWNAPFYARLGFQRLTWQEAGERLRAILGHEQEIGFAADSRCAMRLVL
2. MGSSHHHHHHSSGRENLYFQGHMSNTYQKRKASKEYGLYNQCKKLNDDELFRLLDDHNSLKRISSARVLQLRGGQDAVRLAIEFCSDKNYIRRDIGAFILGQIKICKKCEDNVFNILNNMALNDKSACVRATAIESTAQRCKKNPIYSPKIVEQSQITAFDKSTNVRRATAFAISVINDKATIPLLINLLKDPNGDVRNWAAFAININKYDNSDIRDCFVEMLQDKNEEVRIEAIIGLSYRKDKRVLSVLCDELKKNTVYDDIIEAAGELGDKTLLPVLDTMLYKFDDNEIITSAIDKLKRS
3. SPDHLFPPKPNTRVVVAKFPMGAVTVEDLLVLGKPFGTVVKHLVLPAKGFLEFSAHKEAVNMVNHFQQKPAFVKDTRVGLYLSPRVEGIHSPPKYDEPVPKRLKRTNNPSVVCFSHLPPGEDNQAEVLELAAMFGEVWQSKFLDGKALIEMVDWRDADIMVKYYYSNPLKIQGKSIKVTMSYIKSLREMPGELTPRKSDSSKHSRQKEESSVKDKADDTNQESSEKETKTIKTPEQSQEEGVQLEEGTDHYNNLKLKHAVEEQADGQPDGE

not soluble
soluble
soluble

* * *

assay: soluble on expression in E. coli; label from the status in PepcDB or PDB records
reported endpoint: soluble on expression in E. coli

MGKFISGSIVAILTDQIEESTACNLKHLLRNDPLFKPLIQTNVHKKRSAYEIIGVHTCEENEPCRIGRTRSCLCQEDFVCDKTPANKNVHLCTKLGYFRLFEANKK : not soluble
MANPRGFCAGVDRAISIVENALAIYGAPIYVRHEVVHNRYVVDSLRERGAIFIEQISEVPDGAILIFSAHGVSQAVRNEAKSRDLTVFDATCPLVTKVHMEVARASRRGEESILIGHAGHPEVEGTMGQYSNPEGGMYLVESPDDVWKLTVKNEEKLSFMTQTTLSVDDTSDVIDALRKRFPKIVGPRKDDICYATTNRQEAVRALAEQAEVVLVVGSKNSSNSNRLAELAQRMGKHAFLIDDAKDIQEEWVKEVKCVGVTAGASAPDILVQNVVARLQQLGGGEAIPLEGREENIVFEVPKELRVDIREVD : not soluble

* * *

experiment: soluble on expression in E. coli; label from the status in PepcDB or PDB records
reported endpoint: soluble on expression in E. coli

MMYFISDTHFYHENIINLNPEVRFKGFEIVILTNLLKVLKPEDTLYHLGDFTWHFNDKNEYLRIWKALPGRKILVMGNHDKDKESLKEYFDEIYDFYKIIEHKGKRILLSHYPAKDPITERYPDRQEMVREIYFKENCDLLIHGHVHWNREGIKCACKDYRIECINANVEWNDYKPISEREIDKLISYEKAKN : soluble
MGSSHHHHHHGGFSQSCLPNWIMHGKSCYLFSFSGNSWYGSKRHCSQLGAHLLKIDNSKEFEFIESQTSSHRINAFWIGLSRNQSEGPWFWEDGSAFFPNSFQVRNAVPQESLLHNCVWIHGSEVYNQICNTSSYSICEKEL : soluble

* * *

assay: soluble on expression in E. coli; label from the status in PepcDB or PDB records
reported endpoint: soluble on expression in E. coli

Use the examples below as a reference point.
MGSDKIHHHHHHMTNENLCAGRNRYDGVSIDFFSDADLRAIDSATMDVFQNPGIQVSDAESRALFKEAGCDVNEKTMVVKIPEHVVRRAIMTAPSKITLYGREKQHTFTQQAGGKVHYTCFGTGVKMCKYEAPGVFKTVDSTEEDLANTARVCDWADNIDSYSLAVSARDWAGKGAQDVHETFTPLMNTSKHFFHIDPVGENVEYYWDILKAYYGGDEEQARSRPIFSELLCPTSPLKIGTNACQLILKSVNFGIPINVISMAMSGASCPVHLAGTLVTHNAEVLSGIVLAQLASPGAKVWYGSSTTAFDLKHGTAPVGSPELGLISAAVAKLGQYYDLPTYVAST : not soluble
MSLSRKWLNKVKWDDHGLVPVIVQEQGSNDVLMFAFMNREALQKTVETGEAVFWSRSRKRLWHKGEESGHIQQVHEIRLDCDEDVVLLRVTQVGGIACHTGRHACFFQKFEGTAEDGDWHTVEPVLKNPDDIYAGKPGHNHEEGHHHHHH : not soluble
MGSDKIHHHHHHTEDTVIKVSVLRGPSVIAFADWLENPPIIDNKKVQVKVVDSPDLAQALLIKQETDIAVLPMINAANLYNKGIKIKLAGCPIWGTLYLVEKTPLKEPALYVFGNGTTPDILTRYYLGRQRLDYPLNYAFNTAGEITQGILAGKVNRAVLGEPFLSIALRKDSSLRITADLNHLTDNDTLGFAQTAVVYTPTMEKYRIAFEDALRASCQKAVRYPKETIHSLEEHGIFAQGALTPKSIERCKIYYLSAIEAKDAVMGFLRLIEQYEPKAVGGRLPDAGFIPEKQ : not soluble
MAHHHHHHMLRHLFRCTAAWAPKRSATREQRLKERVAARMELEAQVKSRVACYPHRSLTRPALRLERHQVNTPLFHSQLLNLNKMATDLQCISFSAPKGHWDAAIVLIKGHPNEANFEVWVNPTVPGYDDRHSIAPMYGMWENCISCGACTAWVIRPQSITCSGLDEYGNEKTEVLDGMRARCLMHELDHLSGRTILDQAQGPEFIVSGIAMGQRDLWPPNFPSAEAYMTSPHQFFDYVKNGPIIPPG : not soluble

Could you tell me soluble on expression in E. coli for each of these sequences? They are listed below.
1. MQKIGEWLKEHDVKVTTIYFGGGTPTSITAEEMDLLYEEMVRSFPDVKNIREITVEAGRPDTITEEKLAVLNKYDIDRISINPQSYENETLKAIGRHHTVEETIEKYHLSRQHGMNNINMDLIIGLPGEGVKEFRHSLSETEKLMPESLTVHTLSFKRASEMTRNKHKYKVAGREEVSQMMEDAVAWTKEHGYVPYYLYRQKNILGNLENVGYSLPGQESIYNIMIMEEVQTIIGIGCGAASKFIDRDTGKITHFANPKDPKSYNERFEHYTDEKIKYLEQIFEKTTKQHLEHHHHHH
2. MRTRSQVWAQKAYEKVREAAKGEGRGEYRDMALKLPVLVRQAGLSQALAFVDSRGKEAHKALGNDLAQVLGYRDLRELAEAAREAELLQYLRLTREVLAAAEWFKRFAQALIEE
3. MGSDKIHHHHHHMVTRITINRGKRCVDEADRCHNRWHPDIEPAAEVDPGDIVVIETRDALDGQITANPGVDDVASADLNVVHPLTGPVYVRGAKPGDLLVVEVLDIKAEPFGFTVAIPGFGFLRDLFDKPYKIRWRIEGGYAFSEDLPNVRIPGDPFLGVMGVAPSKELLKEIKEREDRLLKRGGFVLPPTPEGAVPPREPVASEGLRTIPPRENGGNLDVRHFSPGSKIYFPVFVEGALFSVGDAHYAQGDGEVCGTAIEMGATATLRFGVISEGAKKYGIRFPIFKPSESSVRRFTHSKHVAVTGVGVIDSLNESENATLSAKHALLNLINLLEKAGYTREQAYLLASVAADLRLSQLVDVPNFTVTAFLPLDIFIEPPEVLKKLAE
4. MGSDKIHHHHHHMKAAIITKYKQITPMVTEVPVPTIAPTDVLVKIVAASVNPIDLKTKDGDLRLLLQYTMPLIMGSDFAGVITAVGDQVPDFKVGDAVYGRAPKDRIGTFAEFIAIDHQAIALKPANLNFEEAAAIPLVGLTSYQALHDIMNIQPGQKVFIPGGSGGIGIIAIQLAKYFGAYVATTTSAKHFDLVQSLGADKIIDYHQQDFTDVLSHYDAVLDTRGGQSLEAAFQIIKPGGQIVSIAGLPNARFGKDYGLPIWKQWLLGLATRKLSRLEQQAQATYSFLFMQPSGQQLVRLRQLIEQGVIKPVVDRIIPLTDINAALEYSHSGHTTGKIIISIQPN

not soluble
soluble
not soluble
not soluble

Could you tell me soluble on expression in E. coli for each of these sequences? They are listed below.
1. MSLSEFWKEKHGEREQDHEKTIMDGYSVANRFDGTGGGWGYSANSVEAIQFKVSKEIRLVGVGLYGGRGEYISKLKLYRQIGTEADELYVEQITETDETVYDCGAHETATMLFSQPIVIQPNHWHVVSAKISGPSSDCGANGKRHVECDGVTFQFRKSAVSNNGTDVDVGQIPELYYQIVGGSESRDESDSNKQLSISREGHHHHHH
2. MSLATLDVNPELYQAQLADKIARLKAMFVDYSMPELEVFESPVANYRMRAEFRIWHEGDDMYYIMFNQETREKYRVDQFPAASRLINDLMPLLMDAMKGSPILRHKLFQVDFLSTLSGEILVSLLYHRQLSEEWITAAQALKQRLNDEGFNLNLIGRARKMKVVLDRDYVVENLQVNGQPYVYKQVENSFTQPNAKVAEKMLEWAVDCTQESKGDLLELYCGNGNFSLALAQNFERVLATELAKPSVEAAQFNIAANQIGNVQIIRMSAEEFTQAMEGKREFNRLKDAGVDLQSYRCNTIFVDPPRSGMDIDTCKMVQGYERILYISCNPETLQENLQVLGETHQVVRFALFDQFPYTHHMEAGVMLERKKEGHHHHHH

1: soluble; 2: soluble
